- System Tested: human TREK-1 (Homo sapiens)
- Construct: expressed in transfected cells
- Sequence (O95069 whole entry): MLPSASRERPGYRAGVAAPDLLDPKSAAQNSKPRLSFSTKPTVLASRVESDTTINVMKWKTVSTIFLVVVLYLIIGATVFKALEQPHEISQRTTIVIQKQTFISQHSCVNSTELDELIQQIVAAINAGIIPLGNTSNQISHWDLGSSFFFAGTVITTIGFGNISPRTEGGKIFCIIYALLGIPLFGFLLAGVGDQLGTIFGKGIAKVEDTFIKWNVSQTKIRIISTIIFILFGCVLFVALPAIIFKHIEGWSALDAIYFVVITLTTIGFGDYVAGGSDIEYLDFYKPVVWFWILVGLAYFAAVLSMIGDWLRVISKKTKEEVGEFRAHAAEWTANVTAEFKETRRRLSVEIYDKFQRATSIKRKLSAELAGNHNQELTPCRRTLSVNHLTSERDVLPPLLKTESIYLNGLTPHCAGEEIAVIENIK
- Method Description: TREK-1 Thallium (Tl+) flux assay, Method 1
- Assay type: cell-based
- Run Parameters: TREK-1 Thallium (Tl+) flux assay; no *^12 (Method 2) mark on these rows
pIC50: −log10 of the molar value.
Endpoint Name: pIC50

{"Compound": "Cc1cc(C#Cc2cccc(F)c2)cnc1NC(=O)c1c(Cl)cnn1[C@H]1CCOC1", "System Tested": "human TREK-1 (Homo sapiens)", "pIC50": 6.17}
{"Compound": "Cc1cc(C#Cc2ccccc2)cnc1NC(=O)c1c(Cl)cnn1C1CCCN(C(=O)OC(C)(C)C)CC1 (centres unmarked)", "System Tested": "human TREK-1 (Homo sapiens)", "pIC50": 6.32}
{"Compound": "Cc1cc(C#Cc2ccccc2)cnc1NC(=O)c1c(Cl)cnn1CC1CC1", "System Tested": "human TREK-1 (Homo sapiens)", "pIC50": 6.31}

a: Cc1cc(C#Cc2ccccc2)cnc1NC(=O)c1c(Cl)cnn1[C@H]1C[C@@H]2CN(C(=O)OC(C)(C)C)C[C@@H]2C1
b: Cn1nc(Cl)c(C(=O)Nc2ncc(C#Cc3ccccc3)cc2F)c1-c1ccc2c(cnn2C)c1
Which record shows the lower pIC50: the first, a , or the second, b ? Give the label under which the chosen entry appears. b
